B1: Ankyrin repeat and SOCS box protein 14, residues 532 to 572; numbered along this chain, A6NK59 (parent)
chain: RSLKHLCRLKIRKCMGRLHLRCPVFMSFLPLPNRLKAYVLY

variants of: B1; test: abundance fitness (aPCA) (normalised: wild type 0, dead -1); higher = more abundant; growth selection in yeast, the domain comes from the species named; conditions: Homo sapiens
Label Yes when abundance fitness >= -0.002; otherwise No.

* Y38M | No
* Y38S | No
* L18I | Yes
* S2R | No
* N33G | Yes
